Experiment: chemical genetic growth profiling, strain panel (AID 1159580);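 note: tested at 20 µM; growth read once vehicle control cultures reached saturation at 30 °C; lower values mean less growth of the strain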
Conditions: S. cerevisiae strains, growth OD, strain wild type
Out of some 5,500 compounds screened, about 2,000 (36%) were called active. Roughly 18% stayed inconclusive and do not appear here. Cut-off read from the data, not from the text of the source: active = normalized growth mostly below about 0.91 (no sharp cut-off); inconclusive = no clear call, values can overlap the other calls; inactive = mostly above about 0.92. This is one part of the list.
Outcomes: active, inactive

molecule=N[C@@H]1CONC1=O assigned_category=inactive
molecule="CC(=O)O[C@@H]1CC2C(C)(C)[C@H](O)C[C@H](O)[C@]2(C)C2CC[C@@]3(C)[C@H](c4ccoc4)OC(=O)[C@H]4O[C@]43[C@@]21C (stereo partly specified)" assigned_category=inactive
molecule=CC(C)=CCc1c2c(c(O)c3c(=O)c(O)c(-c4ccccc4)oc13)C=CC(C)(C)O2 assigned_category=active
molecule=CC1=C2C(=CO[C@H](C)[C@H]2C)C(=O)C(C(=O)O)=C1O assigned_category=inactive
molecule="CC(=O)O[C@H]1C[C@@]2(C)[C@H](c3ccoc3)OC(=O)[C@H]3O[C@]32[C@@]2(C)C1[C@]1(C)C(C[C@H]2OC(C)=O)C(C)(C)[C@H](OC(C)=O)C[C@@H]1OC(C)=O (stereo partly specified)" assigned_category=inactive
molecule="CC(=O)O[C@H]1C[C@@H](O)C(C)(C)C2C[C@@H](OC(C)=O)[C@]3(C)C(CC[C@@]4(C)[C@H](c5ccoc5)OC(=O)C5OC543)[C@]21C (stereo partly specified)" assigned_category=inactive
